Ref: ChEMBL document CHEMBL2375228

Tested on: SK-MEL-28
Assay: Cytotoxicity against human SK-MEL-28 cells after 72 hrs by MTT assay
Format: functional, cell-based
Details: SK-MEL-28, 72 h
REPORTED_PROPERTY: IC50

Would you please look over these solved cases?
Exercise: Given the entry `CSc1nc(Br)c(C(=O)c2ccccc2)s1` , report its measured IC50.
Key: > 100 µM

Exercise: Given the entry `CSc1nc(Cl)c(C(=O)c2ccccc2)s1` , report its measured IC50.
Key: > 100 µM

Exercise: Given the entry `COC(=O)c1sc2nc(SC)sc2c1C` , report its measured IC50.
Key: > 100 µM

Exercise: Given the entry `O=C(c1ccccc1)c1sc(N2CCOCC2)nc1Br` , report its measured IC50.
Key: > 100 µM

Exercise: Given the entry `N#Cc1sc(N2CCCC2)nc1Cl` , report its measured IC50.
Key: > 100 µM

***
Exercise: Given the entry `COC(=O)c1sc2nc(N3CCOCC3)sc2c1C` , report its measured IC50.
Key: > 100 µM

Exercise: Given the entry `CCOC(=O)c1sc(N2CCCC2)nc1Cl` , report its measured IC50.
Key: 82 µM

Exercise: Given the entry `O=C(c1ccccc1)c1sc(N2CCCCC2)nc1Cl` , report its measured IC50.
Key: 91 µM

Exercise: Given the entry `O=C(c1ccccc1)c1sc(N2CCCC2)nc1Br` , report its measured IC50.
Key: > 100 µM

Exercise: Given the entry `O=C(c1ccccc1)c1sc(N2CCOCC2)nc1Cl` , report its measured IC50.
Key: > 100 µM

Exercise: Given the entry `COC(=O)c1sc2nc(N3CCCCC3)sc2c1C` , report its measured IC50.
Key: > 100 µM

---

Recorded measurements of pIC50, one per entry
Test system: MCF7
Assay: Cytotoxicity against human MCF7 cells after 72 hrs by MTT assay
Assay type: functional, cell-based
Details: MCF7, 72 h
Note: pIC50 values are expressed as the negative base-10 logarithm of concentration in M.

Exercise: Given the entry `COC(=O)c1sc2nc(N3CCCCC3)sc2c1C` , report its measured pIC50.
Key: 4.05

***
Exercise: Given the entry `O=C(c1ccccc1)c1sc(N2CCCC2)nc1Cl` , report its measured pIC50.
Key: 4.20

Exercise: Given the entry `N#Cc1sc(N2CCCCC2)nc1Br` , report its measured pIC50.
Key: 4.11

Exercise: Given the entry `O=C(c1ccccc1)c1sc(N2CCOCC2)nc1Br` , report its measured pIC50.
Key: 4.29

Exercise: Given the entry `O=C(c1ccccc1)c1sc(N2CCCCC2)nc1Br` , report its measured pIC50.
Key: 4.46

Exercise: Given the entry `COC(=O)c1sc2nc(N3CCCC3)sc2c1C` , report its measured pIC50.
Key: 4.25

Exercise: Given the entry `N#Cc1sc(N2CCCC2)nc1Cl` , report its measured pIC50.
Key: 4.00

Exercise: Given the entry `O=C(c1ccccc1)c1sc(N2CCCC2)nc1Br` , report its measured pIC50.
Key: 4.16

Exercise: Given the entry `CCOC(=O)c1sc(N2CCCC2)nc1Cl` , report its measured pIC50.
Key: 4.10

Exercise: Given the entry `COC(=O)c1sc2nc(SC)sc2c1C` , report its measured pIC50.
Key: 4.16
